- target.entity: rHuman CD44/Fc Chimera (human, UniProt P16070 21-220)
- assay.details: ECL multispot (MSD) binding assay; antigen spotted on plate, Fab in solution;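 further: purified Fab bound for 1 h at 20 °C, detected with a TAG-labelled antibody, electrochemiluminescence compared with each well's blank, signal-to-blank ratio of at least 4 scored as hit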
reported.endpoint: ECL signal
No unit in the answer, please; the number alone is enough.

**Query** In one line, give reported ECL signal of the entry Fab VH1-46_IGHD6-6*01_IGHJ1*01 S102A/S103P/S104F/H111F (APFF) & L6_IGKJ1*01 S92M (Fab, V domains shown, Tested as Fab (CH1 with His6/Flag tags from Plasmid A; kappa CL from Plasmid C); also called APFF / S92M) VH: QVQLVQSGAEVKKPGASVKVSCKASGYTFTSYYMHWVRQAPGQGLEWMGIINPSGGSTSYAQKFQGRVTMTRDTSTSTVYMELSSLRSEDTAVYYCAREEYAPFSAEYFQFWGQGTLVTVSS VL: EIVLTQSPATLSLSPGERATLSCRASQSVSSYLAWYQQKPGQAPRLLIYDASNRATGIPARFSGSGSGTDFTLTISSLEPEDFAVYYCQQRMNWPPWTFGQGTKVEIKR .
**Result** 304
